Provide the recorded koff for the entries that follow.
- Target desc: T1, Recombinant human CD4 (R&D Systems, Cat. 10327-CD) (human, UniProt P01730 26-390, limits assumed)
- T1 construct: Bought protein; also called huCD4
- Assay method text: BLI (Octet Red384), purified antibody on anti-mouse Fc sensors, human CD4 100/50/25 nM, global 1:1 fit;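 note: antibodies loaded at 10 µg/mL, curves fitted across association and dissociation phases, with an unrelated mouse-derived antibody serving as internal reference control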
Numbers only here, please. The scale is s⁻¹.

Can you share its koff? I mean this binder: 75110_07J24A (antibody, V domains shown, Tested as antibody purified from AlivaMab Mouse Kappa hybridoma (human V regions, kappa light chain, mouse Fc captured by anti-mouse Fc sensors); also called 75110_07124A) VH: QAQLQESGPGLVKPSETLSLTCTVSGGSISSYYYNWIRQPAGKGLEWIGRIYTSGRTDYNPSLKSRVTMSADTSKNQFSLKLSSVTAADTAVYYCARDEGPTDAFDIWGQGTMVTVSS VL: DIVMTQTPLSLPVTPGEPASISCRSSQSLLDSDDGNTYLDWYLQKPGQSPHLLIYTLSYRASGVPDRFSGSGSGSDFTLKISRVEAEDVGVYYCMQRIEFPFTFGPGTKVDIK 0.0006

Can you share its koff? I mean this binder: 75110_13C13A (antibody, V domains shown, Tested as antibody purified from AlivaMab Mouse Kappa hybridoma (human V regions, kappa light chain, mouse Fc captured by anti-mouse Fc sensors)) VH: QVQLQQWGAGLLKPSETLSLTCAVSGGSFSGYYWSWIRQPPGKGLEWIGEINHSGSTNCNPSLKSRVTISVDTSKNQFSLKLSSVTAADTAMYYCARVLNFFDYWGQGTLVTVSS VL: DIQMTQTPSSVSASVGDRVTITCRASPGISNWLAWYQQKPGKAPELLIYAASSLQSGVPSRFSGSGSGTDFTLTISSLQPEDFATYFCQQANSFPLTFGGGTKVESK 0.0013

Can you share its koff? I mean this binder: 75110_06C16A (antibody, V domains shown, Tested as antibody purified from AlivaMab Mouse Kappa hybridoma (human V regions, kappa light chain, mouse Fc captured by anti-mouse Fc sensors)) VH: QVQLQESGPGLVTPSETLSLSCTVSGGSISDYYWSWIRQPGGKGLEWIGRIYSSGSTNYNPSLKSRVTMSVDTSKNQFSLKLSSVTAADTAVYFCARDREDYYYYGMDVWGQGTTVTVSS VL: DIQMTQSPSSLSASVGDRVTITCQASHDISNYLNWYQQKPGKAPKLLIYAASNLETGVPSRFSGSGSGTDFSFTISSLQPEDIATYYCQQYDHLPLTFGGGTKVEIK 0.0012

Can you share its koff? I mean this binder: 75110_13P22A (antibody, V domains shown, Tested as antibody purified from AlivaMab Mouse Kappa hybridoma (human V regions, kappa light chain, mouse Fc captured by anti-mouse Fc sensors)) VH: QVQLQQWGAGLLKPSETLSLTCAAYGGSFSGYYWSWIRQSPGKGLEWIGEINQSGNTNYNPSLKSRVTISADTSKNQFSLKLSSVTAADTAVYYCARVLNWFDYWGQGILVTVSS VL: DIQMTQSPSSVSASVGDRVTITCRASQGISDWLAWYQQKSGKAPDLLIFAASSLQSGVPSRFSGSGSGTDFTLTISSLQPEDFATYYCQQANSFPYTFGQGTKLEIK 0.0012
